Biological target: NS3FL (full-length NS3) (Hepatitis C virus genotype 1b …, UniProt Q9WMX2 1027-1657)
Sequence (Q9WMX2 1027-1657): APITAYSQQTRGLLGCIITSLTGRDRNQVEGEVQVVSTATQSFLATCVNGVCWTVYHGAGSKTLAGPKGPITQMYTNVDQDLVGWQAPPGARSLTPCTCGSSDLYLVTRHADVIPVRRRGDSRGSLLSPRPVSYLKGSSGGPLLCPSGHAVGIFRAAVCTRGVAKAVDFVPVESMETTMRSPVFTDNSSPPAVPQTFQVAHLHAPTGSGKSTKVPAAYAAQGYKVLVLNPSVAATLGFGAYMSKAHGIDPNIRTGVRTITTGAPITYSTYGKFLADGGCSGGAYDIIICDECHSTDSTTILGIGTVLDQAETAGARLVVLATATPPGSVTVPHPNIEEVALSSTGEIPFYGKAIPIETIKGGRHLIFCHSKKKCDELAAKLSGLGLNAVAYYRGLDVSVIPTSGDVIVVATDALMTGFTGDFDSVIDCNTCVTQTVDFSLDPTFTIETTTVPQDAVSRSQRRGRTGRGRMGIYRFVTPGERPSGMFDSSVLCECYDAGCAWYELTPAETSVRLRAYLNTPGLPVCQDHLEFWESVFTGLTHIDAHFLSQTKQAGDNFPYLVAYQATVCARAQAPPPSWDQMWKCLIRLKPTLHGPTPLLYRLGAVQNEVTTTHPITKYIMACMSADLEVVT
Experiment: fluorescence anisotropy; pH 6.4, 2 mM MgCl2; 25 mM MOPS-NaOH pH 6.4 or 7.2, 2 mM MgCl2, 25 C; 25 nM 5-FAM-dT20 with 0-10 uM NS3hel or 0-5 uM NS3FL, 10 min (anisotropy); 1 uM protein with 0-1 uM ssDNA (Trp)
Conditions: protein: recombinant; tags: C-terminal 6xHis; label: 5'-carboxyfluorescein (5-FAM); single strand
pKd: −log10 of the molar value.
assay.readout: pKd

binder	value.measured
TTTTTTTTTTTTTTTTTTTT (ssDNA) [5-FAM oligo(dT)20]	~7.55
